test system: mRNA; test: mRNA encapsulation (modified Quant-iT RiboGreen assay); assay type: physicochemical; details: RiboGreen, without vs with Triton X-100
Non-standard residues stand in square brackets, D forms with d. Residues, ends and D or L forms follow the SMILES beside them. *: point of attachment. N(2-decanoyloxyethyl)Gly = CCCCCCCCCC(=O)OCCNCC(=O)O; Gly(N-(CH2)3O-octanoyl) = CCCCCCCC(=O)OCCCNCC(=O)O; Gly(N-3-morpholinopropyl) = O=C(O)CNCCCN1CCOCC1; N(2-ethylhexyl)Gly = CCCCC(CC)CNCC(=O)O; Gly(N-dodecyl) = CCCCCCCCCCCCNCC(=O)O; N(CH(CH2OH)2)Gly = O=C(O)CNC(CO)CO; For = O=C*
Outcome: class 1 for mean percent encapsulation of RNA of at least 50%; class 0 for anything lower.

Has CCCCCCCCCC(=O)OCCN(CC(=O)N(CCOC(=O)CCCCCCCCC)CC(=O)N(CC(=O)N(CCOC(=O)CCCCCCCCC)CC(=O)N(CCOC(=O)CCCCCCCCC)CC(=O)N(CC(N)=O)CC(CC)CCCC)CC(CC)CCCC)C(=O)CN(C=O)CCCN1CCOCC1 (centres unmarked) [Compound 76] (For-[Gly(N-3-morpholinopropyl)][N(2-decanoyloxyethyl)Gly][N(2-decanoyloxyethyl)Gly][N(2-ethylhexyl)Gly][N(2-decanoyloxyethyl)Gly][N(2-decanoyloxyethyl)Gly][N(2-ethylhexyl)Gly]-NH2) a recorded mean percent encapsulation of RNA greater than or equal to 50%? class 1

# iterate: CCCCCCCCCCCCN(C=O)CC(=O)N(CCCOC(=O)CCCCCCC)CC(=O)N(CC(=O)N(CCCN1CCOCC1)CC(=O)N(CC(=O)N(CCCOC(=O)CCCCCCC)CC(=O)N(CCCCCCCCCCCC)CC(N)=O)CC(CC)CCCC)CC(CC)CCCC (centres unmarked) [Compound 116] (For-[Gly(N-dodecyl)][Gly(N-(CH2)3O-octanoyl)][N(2-ethylhexyl)Gly][Gly(N-3-morpholinopropyl)][N(2-ethylhexyl)Gly][Gly(N-(CH2)3O-octanoyl)][Gly(N-dodecyl)]-NH2) class 0

How about CCCCCCCC(=O)OCCCN(C=O)CC(=O)N(CCCOC(=O)CCCCCCC)CC(=O)N(CCc1ccccc1)CC(=O)N(CC(=O)N(CCCn1ccnc1)CC(=O)N(CCCOC(=O)CCCCCCC)CC(=O)N(CCc1ccccc1)CC(=O)N(CCCOC(=O)CCCCCCC)CC(=O)N(CC(N)=O)CC(CC)CCCC)CC(CC)CCCC (centres unmarked) ? class 1

// repeat for CCCCCCCCCCCCN(CC(=O)N(CC(N)=O)CC(CC)CCCC)C(=O)CN(CC(CC)CCCC)C(=O)CN(CC(CC)CCCC)C(=O)CN(CCCOC(=O)CCCCCCC)C(=O)CN(CC(CC)CCCC)C(=O)CNC(CO)CO (centres unmarked) [Compound 14] (H-[N(CH(CH2OH)2)Gly][N(2-ethylhexyl)Gly][Gly(N-(CH2)3O-octanoyl)][N(2-ethylhexyl)Gly][N(2-ethylhexyl)Gly][Gly(N-dodecyl)][N(2-ethylhexyl)Gly]-NH2) and report class 1

Attribution: patent US20260373248A1
